targetOrSystem: hA2AAR (Homo sapiens, UniProt P29274)
Construct: expressed in transfected cells; host or cells: HeLa (HeLa-A2A) cell membranes
Sequence (P29274 whole entry): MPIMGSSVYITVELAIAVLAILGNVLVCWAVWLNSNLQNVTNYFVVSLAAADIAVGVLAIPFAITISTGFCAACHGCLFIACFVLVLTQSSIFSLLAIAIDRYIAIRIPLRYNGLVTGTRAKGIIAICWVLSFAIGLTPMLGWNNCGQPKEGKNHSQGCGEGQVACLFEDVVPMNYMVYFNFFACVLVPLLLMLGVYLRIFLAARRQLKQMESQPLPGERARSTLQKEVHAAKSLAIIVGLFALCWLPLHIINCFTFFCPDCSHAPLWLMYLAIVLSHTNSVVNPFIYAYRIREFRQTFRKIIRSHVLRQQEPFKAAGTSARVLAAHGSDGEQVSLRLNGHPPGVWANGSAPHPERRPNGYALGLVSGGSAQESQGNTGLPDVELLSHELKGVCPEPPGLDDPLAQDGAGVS
measurementNotes: Radioligand binding competition, [3H]ZM241385, membranes from HeLa-A2A cells
conditionDetails: 1 μM, [3H]ZM241385, human HeLa cells, n = 2
valueType: % at 1 μM hA2A (percentage displacement of specific binding) (%)
Enter your answer as a number in %; do not include the unit.

>  <compound>
CC1=C(C(=O)OC(C)C)[C@@H](c2ccco2)n2c(nc3cc(Cl)ccc32)N1 [(S)-16j]

>  <valueUnits>
%

>  <valueReported>
19

$$$$
>  <compound>
CC1=C(C(=O)OC(C)C)[C@@H](c2ccco2)n2c(nc3ccccc32)N1 [(S)-ISAM-140]

>  <valueUnits>
%

>  <valueReported>
12

$$$$
>  <compound>
CC1=C(C(=O)OC(C)C)C(c2cccs2)n2c(nc3cc(Cl)ccc32)N1 (stereo not drawn) [16n]

>  <valueUnits>
%

>  <valueReported>
2

$$$$
>  <compound>
CC1=C(C(=O)OC(C)C)C(c2cocn2)n2c(nc3ccc(F)cc32)N1 (stereo not drawn) [17b]

>  <valueUnits>
%

>  <valueReported>
19

$$$$
>  <compound>
CC1=C(C(=O)OC(C)C)C(c2ccsc2)n2c(nc3cc(F)ccc32)N1 (stereo not drawn) [16h]

>  <valueUnits>
%

>  <valueReported>
1

$$$$
>  <compound>
CCOC(=O)C1=C(C)Nc2nc3ccc(F)cc3n2C1c1ccco1 (stereo not drawn) [15a]

>  <valueUnits>
%

>  <valueReported>
2

$$$$
>  <compound>
CC1=C(C(=O)OC(C)C)[C@H](c2ccco2)n2c(nc3cc(Br)ccc32)N1 [(R)-16r]

>  <valueUnits>
%

>  <valueReported>
7

$$$$
>  <compound>
CCOC(=O)C1=C(C)Nc2nc3cc(Cl)ccc3n2C1c1ccsc1 (stereo not drawn) [16o]

>  <valueUnits>
%

>  <valueReported>
7

$$$$

Consider the record given below.
Find % at 1 μM hA2A (percentage displacement of specific binding) (hA2AAR (Homo sapiens, UniProt P29274)) for the entry CC1=C(C(=O)OC(C)C)C(c2ccsc2)n2c(nc3ccc(F)cc32)N1 (stereo not drawn) [15h]
1
